The reported numbers originate from patent US20250230226A1.

Tested on: LL/2 lung cancer tumor endothelial cells
Experimental details: Lung LL2 ex vivo model of tumor angiogenesis
Assay type: cell-based, mouse
Experimental conditions: Mus musculus, Endothelial cell, 48 h, read-out: Cell death
Classification field: class 1 = cytotoxicity at 40 µM at or over 30%; class 0 = cytotoxicity at 40 µM under 30%.

# Molecule, Qualitative label
rows = [
    ("CCCCOc1ccc(S(=O)(=O)c2cnc3ccc(SC)cc3c2N2CCCN(C3CCS(=O)(=O)CC3)CC2)cc1", "class 0"),
    ("CCN(CC)C(=O)c1ccc2ncc(S(=O)(=O)c3ccc(OC)cc3)c(N3CCCN(C)CC3)c2c1", "class 0"),
    ("CCCCOc1ccc(S(=O)(=O)c2cnc3ccc(SC)cc3c2N2CCC3C(COCCN3CC(C)C)C2)cc1 (stereo not drawn)", "class 1"),
    ("CNC(=O)c1ccc2ncc(S(=O)(=O)c3ccc(OC)cc3)c(NC)c2c1", "class 0"),
    ("CCOC(=O)c1ccc2ncc(S(=O)(=O)c3ccc(CC)cc3)c(N3CCC(N4CCCCC4)CC3)c2c1", "class 1"),
    ("CCc1ccc(S(=O)(=O)c2cnc3ccc(OC(F)(F)F)cc3c2N(CC)CC)cc1", "class 0"),
    ("CCc1ccc(S(=O)(=O)c2cnc3ccc(OC)cc3c2NN2CCN(C)CC2)cc1", "class 0"),
    ("CCCCOc1ccc(S(=O)(=O)c2cnc3ccc(SC)cc3c2N2CCC(N3CCCCC3)CC2)cc1", "class 1"),
    ("COc1ccc(S(=O)(=O)c2cnc3cc(OC)c(OC)cc3c2N2CCCN(c3nc4ccc(Cl)cc4s3)CC2)cc1", "class 0"),
    ("CCCCCCCOc1ccc(S(=O)(=O)c2cnc3ccc([S+](C)[O-])cc3c2N2CCC(N3CCCCC3)CC2)cc1 (stereo not drawn)", "class 1"),
    ("CCc1ccc(S(=O)(=O)c2cnc3ccc(OC(F)(F)F)cc3c2N2CCC(N3CCCC3)CC2)cc1", "class 1"),
    ("CCc1ccc(S(=O)(=O)c2cnc3ccc(OC(F)(F)F)cc3c2N2CCCN(CCN(CC)CC)CC2)cc1", "class 1"),
    ("CCCCOc1ccc(S(=O)(=O)c2cnc3ccc(C(=O)OCC)cc3c2N2CCC(N3CCN(CCO)CC3)CC2)cc1", "class 1"),
    ("CCCCOc1ccc(S(=O)(=O)c2cnc3ccc(SC)cc3c2N2CCC(=O)N(C)CC2)cc1", "class 0"),
    ("CCCCOc1ccc(S(=O)(=O)c2cnc3ccc(SC)cc3c2N2CCCN(c3nc4ccc(Cl)cc4s3)CC2)cc1", "class 0"),
    ("CCCCN(CCCC)c1c(S(=O)(=O)c2ccc(OC)cc2)cnc2ccc(C(=O)OCC)cc12", "class 1"),
    ("CCCCOc1ccc(S(=O)(=O)c2cnc3ccc(SC)cc3c2N2CCCN(CCO)CC2)cc1", "class 1"),
    ("CN1CCN(Nc2c(S(=O)(=O)c3ccc(OC(F)(F)F)cc3)cnc3ccc(OC(F)(F)F)cc23)CC1", "class 0"),
    ("CCCCN(CCCC)c1c(S(=O)(=O)c2ccc(CC)cc2)cnc2ccc(OC(F)(F)F)cc12", "class 0"),
    ("CCCCOc1ccc(S(=O)(=O)c2cnc3ccc(SC)cc3c2N2CCCN(S(=O)(=O)NCC(F)(F)F)CC2)cc1", "class 0"),
    ("CCCCOc1ccc(S(=O)(=O)c2cnc3ccc(C(=O)OCC)cc3c2N2CCC(N3CCC(N4CCCCC4)CC3)CC2)cc1", "class 1"),
    ("CCCCOc1ccc(S(=O)(=O)c2cnc3ccc(SC)cc3c2N2CCCN(C)CC2)cc1", "class 1"),
    ("CCCCOc1ccc(S(=O)(=O)c2cnc3ccc(SC)cc3c2N2CCC(N3CCN(CCO)CC3)CC2)cc1", "class 1"),
    ("CCCCOc1ccc(S(=O)(=O)c2cnc3ccc(C(=O)OCC)cc3c2N2CCC(N3CCCN(C)CC3)CC2)cc1", "class 1"),
]
